# test: In vitro liver microsomal stability assay, human
# Format: in vitro ADME
# conditions: Human liver microsomes; read-out: CLint(mic)
# Method: 1) Preparation of working solutions of test samples: The test samples were diluted with acetonitrile to 100 M. 2) Preparation of a working solution of liver microsomes: liver microsomes were diluted with 100 mM phosphate-buffered saline to 0.56 mg/mL. […] 5) After the reaction was stopped, each sample was vortexed for 30 s and then centrifuged at 13,500 rpm for 10 min. […] The mixture was well mixed by vortexing and analyzed by LC-MS/MS. […]
Items are presented alongside their recorded microsomal CLint at 1 µM.
Return type: number; implicit unit µL/min/mg.

compound | microsomal CLint at 1 µM (µL/min/mg)
C[C@@]1(O)CC[C@H]2[C@H](CC[C@@H]3[C@@H]2CC[C@]2(C)[C@@H](C(=O)Cn4cnn(-c5cc(Cl)ccn5)c4=O)CC[C@@H]32)C1 [Compound 26] | 20
C[C@@]1(O)CC[C@H]2[C@H](CC[C@@H]3[C@@H]2CC[C@]2(C)[C@@H](C(=O)Cn4cnn(-c5cccc(F)c5F)c4=O)CC[C@@H]32)C1 [Compound 27] | 15

Proceeding to the next compound to report its microsomal CLint at 1 µM.
Fill in the blank: the reported microsomal CLint at 1 µM of C[C@@]1(O)CC[C@H]2[C@H](CC[C@@H]3[C@@H]2CC[C@]2(C)[C@@H](C(=O)Cn4cnn(-c5cccc(F)n5)c4=O)CC[C@@H]32)C1 [Compound 20] is ____.
20

----------
# test: In vitro liver microsomal stability assay, human
# Format: in vitro ADME
# conditions: Human liver microsomes
Collected CLint scaled at 1 µM values appear next to each entry.
Please respond with the number in mL/min/kg and leave the unit unwritten.

Example entries begin here.
mol | CLint scaled at 1 µM / mL/min/kg
C[C@@]1(O)CC[C@H]2[C@H](CC[C@@H]3[C@@H]2CC[C@]2(C)[C@@H](C(=O)Cn4cnn(-c5cc(F)cc(C#N)c5)c4=O)CC[C@@H]32)C1 | 12
COc1ccc(-n2ncn(CC(=O)[C@H]3CC[C@H]4[C@@H]5CC[C@@H]6C[C@](C)(O)CC[C@@H]6[C@H]5CC[C@]34C)c2=O)cn1 | 17
C[C@@]1(O)CC[C@H]2[C@H](CC[C@@H]3[C@@H]2CC[C@]2(C)[C@@H](C(=O)Cn4cnn(-c5ccc(F)cc5)c4=O)CC[C@@H]32)C1 | 13
C[C@@]1(O)CC[C@H]2[C@H](CC[C@@H]3[C@@H]2CC[C@]2(C)[C@@H](C(=O)Cn4cnn(-c5ccc(F)cc5F)c4=O)CC[C@@H]32)C1 | 25
C[C@@]1(O)CC[C@H]2[C@H](CC[C@@H]3[C@@H]2CC[C@]2(C)[C@@H](C(=O)Cn4cnn(-c5cccc(F)c5F)c4=O)CC[C@@H]32)C1 | 14

Query (compound): C[C@@]1(O)CC[C@H]2[C@H](CC[C@@H]3[C@@H]2CC[C@]2(C)[C@@H](C(=O)Cn4cnn(-c5cccc(C(N)=O)c5)c4=O)CC[C@@H]32)C1 ; field requested: CLint scaled at 1 µM
26

Any idea what CLint scaled at 1 µM was measured for C[C@@]1(O)CC[C@H]2[C@H](CC[C@@H]3[C@@H]2CC[C@]2(C)[C@@H](C(=O)Cn4cnn(-c5cncc(F)c5)c4=O)CC[C@@H]32)C1 ?
21

Consider the compound shown here: COc1cccc(-n2ncn(CC(=O)[C@H]3CC[C@H]4[C@@H]5CC[C@@H]6C[C@](C)(O)CC[C@@H]6[C@H]5CC[C@]34C)c2=O)c1 What is its recorded CLint scaled at 1 µM?
24
